System: ddy strain of male mice
Assay: Analgesic activity, Haffner method
Type: in vivo, mouse (ddy strain
Conditions: 100 mg/kg oral, with threshold morphine hydrochloride s.c.
READOUT_NAME: Analgesic activity, Haffner method, inhibitory ratio (%)

1) CCCCN(C(=O)Nc1ccccc1)C(=O)N(C)C [compound 32, 1,1-Dimethyl-3-n-butyl-5-phenylbiuret] : 31
2) Cc1ccccc1NC(=O)N(C)C(=O)N(C)C [compound 20, 1,1,3-Trimethyl-5-(2-methylphenyl)biuret] : 50
3) Cc1cccc(NC(=O)N(C)C(=O)N(C)C)c1 [compound 21, 1,1,3-Trimethyl-5-(3-methylphenyl)biuret] : 37.5
4) CN(C)C(=O)N(C)C(=O)NC1CCCCC1 [compound 29, 1,1,3-Trimethyl-5-cychlohexylbiuret] : 25
